Reported Growth percentage is given for each of the following compounds.
Tested on: OVCAR-3
TEST_PROTOCOL: NCI 60 cell line screen (Ovarian Cancer)
Assay type: cell-based, human
CONDITION_LABEL: OVCAR-3, single dose 10 µM
MEASUREMENT_LABEL: Growth percentage (%)

| COMPOUND | DATA_VALUE |
| --- | --- |
| COc1ccc(C(c2cc(OC)c(OC)c(OC)c2)n2ccnc2)cc1O (centres unmarked) [21l] | -9.52 |
| COc1ccc(C(c2cc(OC)c(OC)c(OC)c2)n2cncn2)cc1O (centres unmarked) [19e] | 1.74 |
| COc1ccc(C(c2cc(OC)c(OC)c(OC)c2)N2CCCC2)cc1 (centres unmarked) [25g] | 66.63 |
| COc1ccc(C(c2cc(OC)c(OC)c(OC)c2)N2CCCCC2)cc1 (centres unmarked) [26b] | 8.29 |
| COc1ccc(C(c2cc(OC)c(OC)c(OC)c2)N2CCN(Cc3ccccc3)CC2)cc1 (centres unmarked) [27d] | 68.96 |
